Quick reference: %Inh of the listed items.
system: QSK; settings: concentration: 1 μM,replicates: in singlicate; n = 1;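 further: KINOMEscan kinase panel screen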
Please respond with the number in % and leave the unit unwritten.

{"molecule": "CS(=O)c1ccc(-c2coc3ccc(-c4n[nH]c(=O)o4)cc23)cc1 (stereo not drawn)", "%Inh (%)": 0}
{"molecule": "C[C@@H]1CCN(C(=O)N2CCCC2)C[C@@H]1N(C)c1ncnc2[nH]ccc12", "%Inh (%)": 0}

Return %Inh (reported value) for this molecule: "CSc1nccc(-c2c(-c3ccc(F)cc3)ncn2CCCN2CCOCC2)n1.Cl" 5

Return %Inh (reported value) for this molecule: "CCCC(=O)Nc1n[nH]c2ncccc12" 0

Return %Inh (reported value) for this molecule: "C[C@@H]1CNc2c(sc3ccc4nc(-c5ccc(O)cc5)ccc4c23)C(=O)N1" 0

Return %Inh (reported value) for this molecule: CC(C(=O)NC1CCN(c2ccnc(Nc3ccc(F)cc3)n2)C1)c1ccc(Cl)cc1 (stereo not drawn) 0

Return %Inh (reported value) for this molecule: "O=C(Nc1cccc(Oc2ccc3nccn3n2)c1)Nc1cccc(C(F)(F)F)c1" 14

Return %Inh (reported value) for this molecule: "O=C(NCC1CC1)c1ccc(-c2cc(C(=O)NC3CC3)ccc2F)cc1" 0

Return %Inh (reported value) for this molecule: "Cn1ccc2ncnc(Oc3ccc(NC(=O)Nc4ccnc(C(F)(F)F)c4)c(Cl)c3)c21" 0

====

system: IKK-beta; construct: gene IKBKB; details: concentration: 1 μM,replicates: in singlicate; n = 1
Note to self: %Inh under 8% means yes (1), ties and anything higher get no (0).

Reference set (5 entries):
{"molecule": "O=C1NCCc2[nH]c(-c3ccncc3)cc21", "class.name": "no (0)"}
{"molecule": "COc1cccc(CNC(=O)NC2CCN(c3ccnc(Nc4cc(OC)c(OC)c(OC)c4)n3)C2)c1 (stereo not shown) [GSK1379765]", "class.name": "no (0)"}
{"molecule": "CC(C)c1nc(-c2cccc(NS(=O)(=O)c3ccccc3)c2)c(-c2ccnc(Nc3ccc4c(c3)CN(C)CC4)n2)s1 [GSK1649598]", "class.name": "no (0)"}
{"molecule": "C[C@@H](Oc1cc(-n2cnc3cc(-c4ccncc4)ccc32)sc1C(N)=O)c1ccccc1Cl [GSK479719]", "class.name": "no (0)"}
{"molecule": "NC(=O)c1ccc(-c2cc3ncnc(SCC(=O)O)c3s2)cc1", "class.name": "yes (1)"}

Hello, I'm reviewing records and need to know if %Inh of COc1cccc(OC)c1C(=O)Nc1cccc(-c2nn3ccccc3c2-c2ccnc(Nc3cccc(F)c3)n2)c1 [GSK361065] is below 8%. Could you check? yes (1)

====

test system: CDC2L1; construct: gene CDK11B; conditions: concentration: 1 μM,replicates: in singlicate; n = 1
Quick reference: %Inh of the listed items.
Please respond with the number in % and leave the unit unwritten.

Worked set:
{"compound": "CC(C)S(=O)(=O)N1CCN(Cc2ccc3c(c2)nc(NC(=O)c2ccsc2)n3C[C@H](O)c2ccccc2)CC1 [GW635815]", "%Inh, %": 0}
{"compound": "COc1cccc(OC)c1C(=O)Nc1cccc(-c2nn3ccccc3c2-c2ccnc(Nc3cccc(F)c3)n2)c1 [GSK361065]", "%Inh, %": 0}
{"compound": "COc1cccc(CNC(=O)NC2CCN(c3ccnc(Nc4cc(OC)c(OC)c(OC)c4)n3)C2)c1 (centres unmarked) [GSK1379765]", "%Inh, %": 0}
{"compound": "Cn1ccc2ncnc(Oc3ccc(NC(=O)Nc4ccnc(C(F)(F)F)c4)c(Cl)c3)c21", "%Inh, %": 0}
{"compound": "Cc1cccc(-c2nc(Nc3ccncc3)c3sccc3n2)n1 [GW869641]", "%Inh, %": 6}
{"compound": "CS(=O)(=O)Nc1ccc(-c2ccnc3[nH]ccc23)cc1 [GSK993273]", "%Inh, %": 0}
{"compound": "CCOC(=O)N1CCC(n2cnc(-c3ccc(F)cc3)c2-c2ccnc(N)n2)CC1 [SB-219952]", "%Inh, %": 11}

Return %Inh (reported value) for this compound: CC(C(=O)NC1CCN(c2ccnc(Nc3ccc(F)cc3)n2)C1)c1ccc(Cl)cc1 (centres unmarked) [GSK1379713] 0

All values here come from paper PMC5540273.
